Data origin: the supplement of paper PMC10598134

Experiment: collision cross section of modified peptide (TIMS, N2, iRT-aligned); higher = larger / more extended gas-phase ion
Details: charge state: 3; modification: Crotonyl
± gives the standard deviation.
Listing: collision cross section of selected sequences
observed_property: collision cross section

{"columns": ["primary_sequence", "observed_property", "value_measured"],
 "data": [
  ["IHNAENIQPGEQKYEYK [_IHNAENIQPGEQK(Crotonyl)YEYK_]", "collision cross section", "531.58 ± 2.8 Å²"],
  ["PSVGSQSNQAGQGKR [_PSVGSQSNQAGQGK(Crotonyl)R_]", "collision cross section", "468.33 ± 1.6 Å²"],
  ["FGTINIVHPKLGSYTK [_FGTINIVHPK(Crotonyl)LGSYTK_]", "collision cross section", "553.88 ± 2 Å²"],
  ["VLTANSNPSSPSAAKR [_VLTANSNPSSPSAAK(Crotonyl)R_]", "collision cross section", "528.16 ± 1.7 Å²"],
  ["KYEEIDNAPEER [_K(Crotonyl)YEEIDNAPEER_]", "collision cross section", "493.07 ± 1.6 Å²"],
  ["SKHLQEQLNELK [_SK(Crotonyl)HLQEQLNELK_]", "collision cross section", "491.86 ± 3.7 Å²"]
]}

###

Listing: collision cross section of selected sequences
Test: collision cross section of modified peptide (TIMS, N2, iRT-aligned); higher = larger / more extended gas-phase ion
Conditions: charge state: 3; modification: Glutarylation

{"columns": ["primary_sequence", "collision cross section / Å²"],
 "data": [
  ["LGNDFHTNKR [_LGNDFHTNK(Gluratylation)R_]", 434.71],
  ["LLIVSTTPYSEKDTK [_LLIVSTTPYSEK(Gluratylation)DTK_]", 493.7],
  ["VNIGQGSHPQKVK [_VNIGQGSHPQK(Gluratylation)VK_]", 494.72],
  ["GFALVGVGSEASSKK [_GFALVGVGSEASSK(Gluratylation)K_]", 499.26],
  ["VLDSGAPIKIPVGPETLGR [_VLDSGAPIK(Gluratylation)IPVGPETLGR_]", 505.05],
  ["VLTANSNPSSPSAAKR [_VLTANSNPSSPSAAK(Gluratylation)R_]", 532.45],
  ["ANEKTESSSAQQVAVSR [_ANEK(Gluratylation)TESSSAQQVAVSR_]", 546.17],
  ["ITESVAETAQTIKK [_ITESVAETAQTIK(Gluratylation)K_]", 514.64],
  ["VGTASVLQPVKK [_VGTASVLQPVK(Gluratylation)K_]", 415.52],
  ["SPSDSGYSYETIGKTTK [_SPSDSGYSYETIGK(Gluratylation)TTK_]", 531.96]
]}

###

Experiment: collision cross section of modified peptide (TIMS, N2, iRT-aligned); higher = larger / more extended gas-phase ion
Details: charge state: 2; modification: Nitro (Y)

{"columns": ["primary_sequence", "measure_unit", "collision cross section"],
 "data": [
  ["YTTNNSSEQR [_Y(Nitro (Y))TTNNSSEQR_]", "Å²", 355.01],
  ["HHAAYVNNLNVTEEK [_HHAAY(Nitro (Y))VNNLNVTEEK_]", "Å²", 438.46],
  ["LAEQEAHYAVR [_LAEQEAHY(Nitro (Y))AVR_]", "Å²", 388.92],
  ["VVPGYGHAVLR [_VVPGY(Nitro (Y))GHAVLR_]", "Å²", 383.51]
]}

###

Assay: collision cross section of modified peptide (TIMS, N2, iRT-aligned); higher = larger / more extended gas-phase ion
Settings: charge state: 2; modification: HexNAc (ST)
Listing: collision cross section of selected sequences
observed_property: collision cross section (Å²)

{"columns": ["primary_sequence", "observed_property", "measure_unit", "value_measured"],
 "data": [
  ["VEELEGEITTLNHK [_VEELEGEIT(HexNAc (ST))TLNHK_]", "collision cross section", "Å²", 442.1],
  ["DSLGVSFPEELACK [_DSLGVS(HexNAc (ST))FPEELACK_]", "collision cross section", "Å²", 437.05],
  ["ISEILLDHGAPIQAK [_IS(HexNAc (ST))EILLDHGAPIQAK_]", "collision cross section", "Å²", 457.74],
  ["SALAAAQTQVAEYK [_S(HexNAc (ST))ALAAAQTQVAEYK_]", "collision cross section", "Å²", 431.97],
  ["FGVEAFSDCLR [_FGVEAFS(HexNAc (ST))DCLR_]", "collision cross section", "Å²", 398.33],
  ["AQPSASLGVGYR [_AQPSAS(HexNAc (ST))LGVGYR_]", "collision cross section", "Å²", 394.91],
  ["THLGEALAPLSK [_THLGEALAPLS(HexNAc (ST))K_]", "collision cross section", "Å²", 397.68],
  ["AVAITQSPSSVR [_AVAIT(HexNAc (ST))QSPSSVR_]", "collision cross section", "Å²", 390.4],
  ["LDINTNTYTSQDLK [_LDINTNTYTS(HexNAc (ST))QDLK_]", "collision cross section", "Å²", 444.16],
  ["ETTPSSLAVTQTMATK [_ETTPSSLAVTQT(HexNAc (ST))MATK_]", "collision cross section", "Å²", 451.07],
  ["MFLSFPTTK [_MFLS(HexNAc (ST))FPTTK_]", "collision cross section", "Å²", 373.63]
]}

###

Test: collision cross section of modified peptide (TIMS, N2, iRT-aligned); higher = larger / more extended gas-phase ion
Details: charge state: 2; modification: Phospho (Y)
observed_property: collision cross section (Å²)

{"columns": ["primary_sequence", "observed_property", "measure_unit", "value_measured"],
 "data": [
  ["SYGIPYIETSAK [_SY(Phospho (Y))GIPYIETSAK_]", "collision cross section", "Å²", 390.55],
  ["DDSNLYINVK [_DDSNLY(Phospho (Y))INVK_]", "collision cross section", "Å²", 368.08],
  ["AIQLNPSYIR [_AIQLNPSY(Phospho (Y))IR_]", "collision cross section", "Å²", 384.89],
  ["VYSLFLDESR [_VY(Phospho (Y))SLFLDESR_]", "collision cross section", "Å²", 376.54],
  ["HHAAYVNNLNVTEEK [_HHAAY(Phospho (Y))VNNLNVTEEK_]", "collision cross section", "Å²", 438.56],
  ["VVDLLAPYAK [_VVDLLAPY(Phospho (Y))AK_]", "collision cross section", "Å²", 379.49],
  ["DLYEPSHGAK [_DLY(Phospho (Y))EPSHGAK_]", "collision cross section", "Å²", 375.68],
  ["STCTYVGAAK [_STCTY(Phospho (Y))VGAAK_]", "collision cross section", "Å²", 346.22],
  ["VELCSFSGYK [_VELCSFSGY(Phospho (Y))K_]", "collision cross section", "Å²", 372.99],
  ["AIEINPDSAQPYK [_AIEINPDSAQPY(Phospho (Y))K_]", "collision cross section", "Å²", 402.87],
  ["VHATSTYR [_VHATSTY(Phospho (Y))R_]", "collision cross section", "Å²", 330.17]
]}

###

Assay: collision cross section of modified peptide (TIMS, N2, iRT-aligned); higher = larger / more extended gas-phase ion
Conditions: charge state: 3; modification: Methyl (R)

{"columns": ["primary_sequence", "collision cross section, Å²"],
 "data": [
  ["GGGGGGGGGAPRGR [_GGGGGGGGGAPR(Methyl (R))GR_]", 427.42],
  ["RGFGFGGFAISAGK [_R(Methyl (R))GFGFGGFAISAGK_]", 488.52],
  ["GRGTSQLAEGATAK [_GR(Methyl (R))GTSQLAEGATAK_]", 464.6],
  ["YSSNLGNFNYEQRGAFR [_YSSNLGNFNYEQR(Methyl (R))GAFR_]", 534.33],
  ["SGATAGAAGGRGK [_SGATAGAAGGR(Methyl (R))GK_]", 448.31],
  ["YSSSSIPEPFGSRGSPR [_YSSSSIPEPFGSR(Methyl (R))GSPR_]", 522.38],
  ["LLRGVGGSHGR [_LLR(Methyl (R))GVGGSHGR_]", 456.7],
  ["FGRGTGLTQPSQR [_FGR(Methyl (R))GTGLTQPSQR_]", 470.4],
  ["GIGRGTVQALHATGAR [_GIGR(Methyl (R))GTVQALHATGAR_]", 502.48],
  ["TPSSFRQPFTPTSR [_TPSSFR(Methyl (R))QPFTPTSR_]", 481.78]
]}

###

Experiment: collision cross section of modified peptide (TIMS, N2, iRT-aligned); higher = larger / more extended gas-phase ion
Details: charge state: 3; modification: hydroxyisobutyryl

{"columns": ["primary_sequence", "measure_unit", "collision cross section"],
 "data": [
  ["ITLSKHQNVQLPR [_ITLSK(hydroxyisobutyryl)HQNVQLPR_]", "Å²", 520.86],
  ["DLSTVEALQNLKNLK [_DLSTVEALQNLK(hydroxyisobutyryl)NLK_]", "Å²", 549.84],
  ["AAQASDLEKIHLDEK [_AAQASDLEK(hydroxyisobutyryl)IHLDEK_]", "Å²", 501.4],
  ["IHVQSSSDSSDEPAEKR [_IHVQSSSDSSDEPAEK(hydroxyisobutyryl)R_]", "Å²", 514.66],
  ["LQEKVESAQSEQK [_LQEK(hydroxyisobutyryl)VESAQSEQK_]", "Å²", 502.35],
  ["AGQKLIDVNHYAK [_AGQK(hydroxyisobutyryl)LIDVNHYAK_]", "Å²", 483.82],
  ["IISSIEQKEENK [_IISSIEQK(hydroxyisobutyryl)EENK_]", "Å²", 478.99],
  ["SKHLQEQLNELK [_SK(hydroxyisobutyryl)HLQEQLNELK_]", "Å²", 492.58],
  ["IHNAENIQPGEQKYEYK [_IHNAENIQPGEQK(hydroxyisobutyryl)YEYK_]", "Å²", 532.88],
  ["SLFFGGKGAPLQR [_SLFFGGK(hydroxyisobutyryl)GAPLQR_]", "Å²", 482.11],
  ["VGEFSGANKEK [_VGEFSGANK(hydroxyisobutyryl)EK_]", "Å²", 444.77],
  ["LLFSNTAAQKLR [_LLFSNTAAQK(hydroxyisobutyryl)LR_]", "Å²", 486.85]
]}
